Where do the numbers come from? From BindingDB's records for PubMed 1988661.

Sequence of the target: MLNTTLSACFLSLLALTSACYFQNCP
Square brackets hold non-standard residues; d marks the D form. Peptide text beside a SMILES is read from it. dPiz(1,6-dehydro) = O=C(O)[C@H]1CCC=NN1; Pip = O=C(O)[C@@H]1CCCCN1; dPip = O=C(O)[C@H]1CCCCN1
Readout type: Ki (nM)

Compound	Ki [nM]
CCC(C)C(NC(=O)C(N)Cc1ccc2ccccc2c1)C(=O)C1(C=O)CCCN1C(=O)C(N)CC1=NC(C(=O)N2CCCCC2)(C(=O)N2CCCCC2)N=C1 (stereo unspecified)	760

1 = CCC(C)C(N)C(=O)N(C(=O)C1CCCN1C(=O)C(CC1=CC=CCC1(C(=O)N1C=CC=CC1)C(=O)N1CCNCC1)NC)C(C=O)Cc1c[nH]c2ccccc12 (stereo unspecified)
2 = CC[C@H](C)[C@@H]1NC(=O)[C@@H](Cc2c[nH]c3ccccc23)NC(=O)[C@@H]2CCCN2C(=O)[C@@H](Cc2cnc[nH]2)NC(=O)[C@@H]2CCCCN2C(=O)[C@H]2CCC=NN2C1=O [J325.349J] (cyclo(I[dPiz(1,6-dehydro)][Pip][dH]P[dW]))
Prompt line: Would you mind telling me which has the lower recorded Ki between 1 and 2 ? Lab note: record the label of whichever item you select.
Response line: 2
(2: 1200 nM, 1: 9500 nM)

a = CC[C@H](C)[C@@H]1NC(=O)[C@@H](Cc2ccccc2)NC(=O)[C@@H]2CCCN2C(=O)[C@@H](Cc2ccccc2)N(C)C(=O)[C@H]2CCC=NN2C1=O [J440.774A]
b = CCC(C)C1NC(=O)[C@H](Cc2ccccc2)NC(=O)[C@H]2CCCN2C(=O)[C@H](Cc2ccccc2)N(C)C(=O)[C@H]2CC(CN(C)C)CNN2C(=O)[C@H]2CCC=NN2C1=O (stereo partly specified) [J440.775J]
c = CC[C@H](C)[C@@H]1NC(=O)[C@@H](Cc2c[nH]c3ccccc23)NC(=O)[C@@H]2CCCN2C(=O)[C@@H](Cc2c[nH]cn2)NC(=O)[C@@H]2CCCCN2C(=O)[C@H]2CCCCN2C1=O [CAS_196819] (cyclo(I[dPip][Pip][dH]P[dW]))
Prompt line: Let's sort these by Ki, smallest first. Go ahead? Your reply should list the labels following the order given in the request.
Response line: a, b, c

---

Protein target, amino acids: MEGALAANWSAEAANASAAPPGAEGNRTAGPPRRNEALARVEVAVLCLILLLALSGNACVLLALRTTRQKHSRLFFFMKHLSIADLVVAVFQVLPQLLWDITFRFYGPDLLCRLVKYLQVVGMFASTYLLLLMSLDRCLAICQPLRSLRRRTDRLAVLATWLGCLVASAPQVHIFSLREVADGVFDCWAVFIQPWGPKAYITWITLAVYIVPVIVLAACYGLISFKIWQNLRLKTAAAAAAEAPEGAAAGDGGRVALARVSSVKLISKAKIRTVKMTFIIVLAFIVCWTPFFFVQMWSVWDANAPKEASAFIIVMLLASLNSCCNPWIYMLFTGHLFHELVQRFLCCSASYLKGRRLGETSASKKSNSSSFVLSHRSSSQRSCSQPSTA
Square brackets hold non-standard residues; d marks the D form. Peptide text beside a SMILES is read from it. dPiz(1,6-dehydro) = O=C(O)[C@H]1CCC=NN1; Pip = O=C(O)[C@@H]1CCCCN1
Readout type: Ki (nM)

Compound	Units text	Ki
CC[C@H](C)[C@@H]1NC(=O)[C@@H](Cc2c[nH]c3ccccc23)NC(=O)[C@@H]2CCCN2C(=O)[C@@H](Cc2cnc[nH]2)NC(=O)[C@@H]2CCCCN2C(=O)[C@H]2CCC=NN2C1=O [J325.349J] (cyclo(I[dPiz(1,6-dehydro)][Pip][dH]P[dW]))	nM	1.3
CCC(C)C(NC(=O)C(N)Cc1ccc2ccccc2c1)C(=O)C1(C=O)CCCN1C(=O)C(N)CC1=NC(C(=O)N2CCCCC2)(C(=O)N2CCCCC2)N=C1 (centres undefined) [NSC_188397]	nM	5.1

1 = CCC(C)C1NC(=O)[C@H](Cc2ccccc2)NC(=O)[C@H]2CCCN2C(=O)[C@H](Cc2ccccc2)N(C)C(=O)[C@H]2CC(CN(C)C)CNN2C(=O)[C@H]2CCC=NN2C1=O (some centres undefined) [J440.775J]
2 = CC[C@H](C)[C@@H]1NC(=O)[C@@H](Cc2ccccc2)NC(=O)[C@@H]2CCCN2C(=O)[C@@H](Cc2ccccc2)N(C)C(=O)[C@H]2CCC=NN2C1=O [J440.774A]
Prompt line: When their Ki values are compared, which is larger, 1 or 2 ? Selection: enter the item's label.
Response line: 2
(2: 21 nM, 1: 4.1 nM)

---

Target protein (sequence): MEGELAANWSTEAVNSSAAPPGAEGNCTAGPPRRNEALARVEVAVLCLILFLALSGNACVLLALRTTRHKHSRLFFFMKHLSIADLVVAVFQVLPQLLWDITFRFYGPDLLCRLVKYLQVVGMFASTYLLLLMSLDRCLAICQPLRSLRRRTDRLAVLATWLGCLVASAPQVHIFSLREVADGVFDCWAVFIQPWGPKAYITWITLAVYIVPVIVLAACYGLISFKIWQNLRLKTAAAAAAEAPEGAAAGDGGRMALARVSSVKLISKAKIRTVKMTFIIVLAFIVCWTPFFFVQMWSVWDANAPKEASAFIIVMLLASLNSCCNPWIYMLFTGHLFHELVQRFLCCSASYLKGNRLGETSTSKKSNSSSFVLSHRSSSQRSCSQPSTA
pKi: −log10 of the molar value. Square brackets hold non-standard residues; d marks the D form. Peptide text beside a SMILES is read from it. dPiz(1,6-dehydro) = O=C(O)[C@H]1CCC=NN1; Pip = O=C(O)[C@@H]1CCCCN1
Readout type: pKi

Completed entries (count: 3):
Compound	pKi
CC[C@H](C)[C@@H]1NC(=O)[C@@H](Cc2c[nH]c3ccccc23)NC(=O)[C@@H]2CCCN2C(=O)[C@@H](Cc2cnc[nH]2)NC(=O)[C@@H]2CCCCN2C(=O)[C@H]2CCC=NN2C1=O [J325.349J] (cyclo(I[dPiz(1,6-dehydro)][Pip][dH]P[dW]))	8.64
CCC(C)C1NC(=O)[C@H](Cc2ccccc2)NC(=O)[C@H]2CCCN2C(=O)[C@H](Cc2ccccc2)N(C)C(=O)[C@H]2CC(CN(C)C)CNN2C(=O)[C@H]2CCC=NN2C1=O (stereo not given in full) [J440.775J]	8.09
CCC(C)C1NC(=O)[C@H](Cc2ccccc2)NC(=O)[C@H]2CCCN2C(=O)[C@H](Cc2ccccc2)N(C)C(=O)[C@@H]2CCC=NN2C(=O)[C@H]2CCC=NN2C1=O (stereo not given in full) [J325.338D]	7.92

A = CC[C@H](C)[C@@H]1NC(=O)[C@@H](Cc2ccccc2)NC(=O)[C@@H]2CCCN2C(=O)[C@@H](Cc2ccccc2)N(C)C(=O)[C@H]2CCC=NN2C1=O [J440.774A]
B = CCC(C)C(N)C(=O)N(C(=O)C1CCCN1C(=O)C(CC1=CC=CCC1(C(=O)N1C=CC=CC1)C(=O)N1CCNCC1)NC)C(C=O)Cc1c[nH]c2ccccc12 (stereo not given)
Prompt line: Please choose the item with the lower pKi value from this pair: A and B Could you answer with the label of the item you picked?
Response line: A

---

# Target under test: Vasopressin V2 receptor (Rattus norvegicus, UniProt Q00788)
# Sequence (Q00788 whole entry): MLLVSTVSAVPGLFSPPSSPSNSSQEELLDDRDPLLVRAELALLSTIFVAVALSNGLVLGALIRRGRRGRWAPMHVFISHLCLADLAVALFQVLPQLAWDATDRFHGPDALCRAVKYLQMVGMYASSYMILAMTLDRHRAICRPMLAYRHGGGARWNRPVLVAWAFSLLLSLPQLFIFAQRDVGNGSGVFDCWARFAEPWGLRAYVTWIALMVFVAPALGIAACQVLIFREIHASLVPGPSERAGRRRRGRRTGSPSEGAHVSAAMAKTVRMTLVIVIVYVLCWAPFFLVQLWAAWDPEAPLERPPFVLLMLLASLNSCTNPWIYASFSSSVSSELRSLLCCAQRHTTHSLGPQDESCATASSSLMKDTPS
pKi: −log10 of the molar value. Square brackets hold non-standard residues; d marks the D form. Peptide text beside a SMILES is read from it. dPiz(1,6-dehydro) = O=C(O)[C@H]1CCC=NN1; Pip = O=C(O)[C@@H]1CCCCN1; dPip = O=C(O)[C@H]1CCCCN1
Readout type: pKi

# annotated cases, reported pKi shown
Compound	Target under test	pKi
CCC(C)C(N)C(=O)N(C(=O)C1CCCN1C(=O)C(CC1=CC=CCC1(C(=O)N1C=CC=CC1)C(=O)N1CCNCC1)NC)C(C=O)Cc1c[nH]c2ccccc12 (stereo not given) [NSC_3083084]	Vasopressin V2 receptor (Rattus norvegicus, UniProt Q00788)	6.62
CC[C@H](C)[C@@H]1NC(=O)[C@@H](Cc2c[nH]c3ccccc23)NC(=O)[C@@H]2CCCN2C(=O)[C@@H](Cc2cnc[nH]2)NC(=O)[C@@H]2CCCCN2C(=O)[C@H]2CCC=NN2C1=O [J325.349J] (cyclo(I[dPiz(1,6-dehydro)][Pip][dH]P[dW]))	Vasopressin V2 receptor (Rattus norvegicus, UniProt Q00788)	6.43
CC[C@H](C)[C@@H]1NC(=O)[C@@H](Cc2c[nH]c3ccccc23)NC(=O)[C@@H]2CCCN2C(=O)[C@@H](Cc2c[nH]cn2)NC(=O)[C@@H]2CCCCN2C(=O)[C@H]2CCCCN2C1=O [CAS_196819] (cyclo(I[dPip][Pip][dH]P[dW]))	Vasopressin V2 receptor (Rattus norvegicus, UniProt Q00788)	5.51

A = CC[C@H](C)[C@@H]1NC(=O)[C@@H](Cc2ccccc2)NC(=O)[C@@H]2CCCN2C(=O)[C@@H](Cc2ccccc2)N(C)C(=O)[C@H]2CCC=NN2C1=O [J440.774A]
B = CCC(C)C1NC(=O)[C@H](Cc2ccccc2)NC(=O)[C@H]2CCCN2C(=O)[C@H](Cc2ccccc2)N(C)C(=O)[C@H]2CC(CN(C)C)CNN2C(=O)[C@H]2CCC=NN2C1=O (stereo not given in full) [J440.775J]
Prompt line: Lab notebook, comparison: A versus B , higher pKi goes to which? # respond with the chosen item's label
Response line: A
(A: 6.26, B: 5.96)
